The measured values listed here are drawn from ChEMBL document CHEMBL1921799.

tested on: Human immunodeficiency virus 1; assay: Antiviral activity against Human immunodeficiency virus 1 3B infected in human MT2 cells assessed as protection against viral infection by MTT assay; assay type: functional, organism-based
EC50 vs 0.6 µM: less than gives y; not less than gives n.

q: Please let me know if "N#Cc1cc(Cl)cc(Oc2ccc(Cl)cc2OCCn2cc(Cl)c(=O)[nH]c2=O)c1" shows EC50 below 0.6 µM.
a: y

q: Please let me know if "O=c1ccn(CCOc2ccc(Cl)cc2Cc2ccccc2Cl)c(=O)[nH]1" shows EC50 below 0.6 µM.
a: n

q: Please let me know if "N#Cc1ccc(Cl)c(Oc2ccc(Cl)cc2OCCn2ccc(=O)[nH]c2=O)c1" shows EC50 below 0.6 µM.
a: y

q: Please let me know if "O=c1ccn(CCOc2ccc(Cl)cc2Cc2cccc(Cl)c2)c(=O)[nH]1" shows EC50 below 0.6 µM.
a: n

q: Please let me know if "O=c1ccn(CCOc2cc(Cl)cc(Cl)c2Oc2ccccc2Cl)c(=O)[nH]1" shows EC50 below 0.6 µM.
a: n

###

tested on: MT2; test: Cytotoxicity against human MT2 cells infected with HIV1 NL4.3 by MTT assay; format: cell-based; conditions: mt2
So I've got a bunch of molecules here, and I need their CC50 values.
# unit: µM | format: bare number

q: Reported CC50 for MT2, given "CNc1ccc(Oc2cc(Cl)cc(/C=C/C#N)c2)c(OCCn2ccc(=O)[nH]c2=O)c1" ?
a: 30

q: Reported CC50 for MT2, given "N#Cc1cc(Cl)cc(Oc2ccc(Cl)cc2OCCn2cc(F)c(=O)[nH]c2=O)c1" ?
a: 13

q: Reported CC50 for MT2, given "N#C/C=C/c1cc(F)cc(Oc2ccc(Cl)cc2OCCn2ccc(=O)[nH]c2=O)c1" ?
a: 48

q: Reported CC50 for MT2, given "N#Cc1cc(C#N)cc(Oc2cc(Cl)ccc2OCCn2ccc(=O)[nH]c2=O)c1" ?
a: 77

q: Reported CC50 for MT2, given "N#Cc1ccc(Oc2cc(Cl)ccc2Cl)c(OCCn2ccc(=O)[nH]c2=O)c1" ?
a: 59

q: Reported CC50 for MT2, given "N#C/C=C/c1cccc(Oc2ccc(Cl)cc2OCCn2ccc(=O)[nH]c2=O)c1" ?
a: 22

q: Reported CC50 for MT2, given "N#C/C=C/c1cc(F)cc(Oc2ccc(F)cc2OCCn2ccc(=O)[nH]c2=O)c1" ?
a: 45

q: Reported CC50 for MT2, given "N#Cc1cc(Cl)cc(Oc2cc(Cl)ccc2OCCn2ccc(=O)[nH]c2=O)c1" ?
a: 32

q: Reported CC50 for MT2, given "N#C/C=C/c1cc(Cl)cc(Oc2ccc(Cl)cc2OCCn2ccc(=O)[nH]c2=O)c1" ?
a: 10

q: Reported CC50 for MT2, given "N#Cc1cc(Cl)cc(Oc2ccc(Cl)cc2OCCn2cc(Cl)c(=O)[nH]c2=O)c1" ?
a: 21

###

tested on: Human immunodeficiency virus 1; assay: Antiviral activity against Human immunodeficiency virus 1 NL4.3 reverse transcriptase K103N and Y181C double mutant infected in human MT2 cells assessed as inhibition of viral infection; assay type: functional, organism-based; settings: Human immunodeficiency virus 1, NL4.3, MT2
So I've got a bunch of molecules here, and I need their log10 of EC50 values.
In our notation, the value equals log10 of EC50 in µM.

q: log10 of EC50 lookup needed for "N#Cc1ccc(Oc2cc(Cl)ccc2Cl)c(OCCn2ccc(=O)[nH]c2=O)c1" , thanks.
a: 0.45

q: log10 of EC50 lookup needed for "N#Cc1cc(Cl)cc(Oc2ccc(Cl)cc2OCCn2cc(F)c(=O)[nH]c2=O)c1" , thanks.
a: 0.23

q: log10 of EC50 lookup needed for "N#Cc1cc(C#N)cc(Oc2cc(Cl)ccc2OCCn2ccc(=O)[nH]c2=O)c1" , thanks.
a: 0.34

q: log10 of EC50 lookup needed for "N#Cc1cc(Cl)cc(Oc2ccc(Cl)cc2OCCn2ccc(=O)[nH]c2=O)c1" , thanks.
a: 0.23

q: log10 of EC50 lookup needed for "N#C/C=C/c1cc(Cl)cc(Oc2ccc(Cl)cc2OCCn2ccc(=O)[nH]c2=O)c1" , thanks.
a: -0.66

q: log10 of EC50 lookup needed for "N#Cc1cc(Cl)cc(Oc2ccc(Cl)cc2OCCn2cc(Cl)c(=O)[nH]c2=O)c1" , thanks.
a: -0.24

q: log10 of EC50 lookup needed for "N#Cc1cc(Cl)cc(Oc2cc(Cl)ccc2OCCn2ccc(=O)[nH]c2=O)c1" , thanks.
a: 0.08

q: log10 of EC50 lookup needed for "N#C/C=C/c1cc(F)cc(Oc2ccc(Cl)cc2OCCn2ccc(=O)[nH]c2=O)c1" , thanks.
a: -0.05

q: log10 of EC50 lookup needed for "N#C/C=C/c1cc(F)cc(Oc2ccc(F)cc2OCCn2ccc(=O)[nH]c2=O)c1" , thanks.
a: -1.07

q: log10 of EC50 lookup needed for "N#C/C=C/c1cccc(Oc2ccc(Cl)cc2OCCn2ccc(=O)[nH]c2=O)c1" , thanks.
a: 0.20

q: log10 of EC50 lookup needed for "N#C/C=C/c1cccc(Oc2ccc(C#N)cc2OCCn2ccc(=O)[nH]c2=O)c1" , thanks.
a: 0.90
